Origin of the recorded values: patent US8546608B2

- TARGET_DESC: proteasome in Molt-4 cells (human leukemia) (Homo sapiens, UniProt P20618+P28074)
- Sequence (P28074 60-263): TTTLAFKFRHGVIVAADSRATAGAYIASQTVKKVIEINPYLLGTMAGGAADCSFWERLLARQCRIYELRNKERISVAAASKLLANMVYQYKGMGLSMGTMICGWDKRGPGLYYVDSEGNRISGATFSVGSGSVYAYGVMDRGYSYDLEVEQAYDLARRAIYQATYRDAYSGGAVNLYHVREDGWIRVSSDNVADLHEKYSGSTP
- Sequence (P20618 29-241): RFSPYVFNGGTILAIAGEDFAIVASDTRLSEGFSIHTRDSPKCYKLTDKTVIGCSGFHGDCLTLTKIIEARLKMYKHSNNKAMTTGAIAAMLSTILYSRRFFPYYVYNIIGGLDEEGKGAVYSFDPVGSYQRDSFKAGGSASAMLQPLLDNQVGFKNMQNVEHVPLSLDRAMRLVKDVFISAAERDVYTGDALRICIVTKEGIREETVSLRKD
- Format: cell-based
- PROTOCOL_CONDITIONS: assay of Example E, inhibition of MOLT4; read-out: MOLT4 (EC50)
EXPERIMENTAL_READOUT: EC50

{"columns": ["STRUCTURE_SMILES", "EC50"],
 "data": [
  ["CCCCc1ccc(C(=O)N[C@@H](CNS(=O)(=O)c2ccc(F)cc2)C(=O)N[C@@H](CC(C)C)B(O)O)cc1", "< 200 nM"],
  ["CCCCCCCCCCC(=O)N[C@@H](CCCNC(=N)N[N+](=O)[O-])C(=O)N[C@@H](CC(C)C)B1O[C@@H]2C[C@@H]3C[C@@H](C3(C)C)[C@]2(C)O1", "< 200 nM"],
  ["CC(C)C[C@H](NC(=O)[C@H](CCCNC(=N)N[N+](=O)[O-])NC(=O)c1ccc(C(C)C)cc1)B(O)O", "2000 to 10000 nM"]
]}

Measured on proteasome in Molt-4 cells (human leukemia) (Homo sapiens, UniProt P20618+P28074), `CCCCc1ccc(NC(=O)N[C@@H](CCCNC(=N)N[N+](=O)[O-])C(=O)N[C@@H](CC(C)C)B2O[C@@H]3C[C@@H]4C[C@@H](C4(C)C)[C@]3(C)O2)cc1` has a documented EC50 of < 200 nM

Measured on proteasome in Molt-4 cells (human leukemia) (Homo sapiens, UniProt P20618+P28074), `CCCCCCCNC(=O)N[C@@H](CCCNC(=N)N[N+](=O)[O-])C(=O)N[C@@H](CC(C)C)B1O[C@@H]2C[C@@H]3C[C@@H](C3(C)C)[C@]2(C)O1` has a documented EC50 of < 200 nM

Measured on proteasome in Molt-4 cells (human leukemia) (Homo sapiens, UniProt P20618+P28074), `CCCCc1ccc(C(=O)N[C@@H](CNC(=O)c2ccc(-c3nn[nH]n3)cc2)C(=O)N[C@@H](CC(C)C)B(O)O)cc1` has a documented EC50 of 200 to 2000 nM

Measured on proteasome in Molt-4 cells (human leukemia) (Homo sapiens, UniProt P20618+P28074), `CC(=O)CCCC(=O)N[C@@H](CCCNC(=N)N[N+](=O)[O-])C(=O)N[C@@H](CC(C)C)B(O)O` has a documented EC50 of 2000 to 10000 nM

====

- TARGET_DESC: proteasome in Molt-4 cells (human leukemia) (Homo sapiens, UniProt P20618+P28074)
- Format: cell-based
- PROTOCOL_CONDITIONS: assay of Example E, inhibition of MOLT4; read-out: MOLT4 (EC50)
Each record here notes measured EC50.

In the examples that follow, each entry is paired with its recorded EC50.
{"columns": ["COMPOUND", "TARGET_DESC", "EXPERIMENTAL_READOUT", "REPORTED_MEASUREMENT"],
 "data": [
  ["CC(C)C[C@H](NC(=O)[C@H](CCCNC(=N)N[N+](=O)[O-])NC(=O)CSc1ncccn1)B1O[C@@H]2C[C@@H]3C[C@@H](C3(C)C)[C@]2(C)O1", "proteasome in Molt-4 cells (human leukemia) (Homo sapiens, UniProt P20618+P28074)", "EC50", "2 to 10 µM"],
  ["CCCCc1ccc(C(=O)N[C@@H](CNC(=O)c2ccc(N3CCOCC3)nc2)C(=O)N[C@@H](CC(C)C)B(O)O)cc1", "proteasome in Molt-4 cells (human leukemia) (Homo sapiens, UniProt P20618+P28074)", "EC50", "< 0.2 µM"],
  ["CC(C)C[C@H](NC(=O)[C@H](CCCNC(=N)N[N+](=O)[O-])NC(=O)Cn1cnnn1)B1O[C@@H]2C[C@@H]3C[C@@H](C3(C)C)[C@]2(C)O1", "proteasome in Molt-4 cells (human leukemia) (Homo sapiens, UniProt P20618+P28074)", "EC50", "> 10 µM"],
  ["CCOC(=O)/C=C/C(=O)N[C@@H](CCCNC(=N)N[N+](=O)[O-])C(=O)N[C@@H](CC(C)C)B1O[C@@H]2C[C@@H]3C[C@@H](C3(C)C)[C@]2(C)O1", "proteasome in Molt-4 cells (human leukemia) (Homo sapiens, UniProt P20618+P28074)", "EC50", "0.2 to 2 µM"],
  ["CCCCc1ccc(C(=O)N[C@@H](CNC(=O)c2ccno2)C(=O)N[C@@H](CC(C)C)B(O)O)cc1", "proteasome in Molt-4 cells (human leukemia) (Homo sapiens, UniProt P20618+P28074)", "EC50", "< 0.2 µM"],
  ["Cc1ccc(/C=C/C(=O)N[C@@H](CCCNC(=N)N[N+](=O)[O-])C(=O)N[C@@H](CC(C)C)B2O[C@@H]3C[C@@H]4C[C@@H](C4(C)C)[C@]3(C)O2)cc1", "proteasome in Molt-4 cells (human leukemia) (Homo sapiens, UniProt P20618+P28074)", "EC50", "< 0.2 µM"]
]}

Record summary for `CCCC/C=C/C(=O)N[C@@H](CCCNC(=N)N[N+](=O)[O-])C(=O)N[C@@H](CC(C)C)B(O)O` : reported EC50 = 2 to 10 µM

Record summary for `CCCCCCCCC(C)(C)C(=O)N[C@H](C(=O)N[C@@H](CC(C)C)B(O)O)[C@@H](C)O` : reported EC50 = < 0.2 µM

====

- TARGET_DESC: 20S Human Erythrocyte Proteasome (HEP) (Homo sapiens, UniProt P20618+P28074)
- Construct: 20S Human Erythrocyte Proteasome (HEP), purchased from Immatics Biotechnologies Inc
- ASSAY: Chymotrypsin-like activity of 20S Human Erythrocyte Proteasome (HEP), IC50 determination
- PROTOCOL_CONDITIONS: assay of Example C, inhibition of HEP
EXPERIMENTAL_READOUT: IC50

{"columns": ["MOLECULE", "REPORTED_MEASUREMENT"],
 "data": [
  ["CC(=O)NCCCCCC(=O)N[C@@H](CCCNC(=N)N[N+](=O)[O-])C(=O)N[C@@H](CC(C)C)B(O)O", "< 10 nM"],
  ["CC(C)C[C@H](NC(=O)[C@H](CCCNC(=N)N[N+](=O)[O-])NC(=O)CCCCC1CCCCC1)B(O)O", "< 10 nM"]
]}

Alright, here's another molecule for you.
Record summary for CCCCC(CC)CCC(=O)N[C@@H](CCCNC(=N)N[N+](=O)[O-])C(=O)N[C@@H](CC(C)C)B1O[C@@H]2C[C@@H]3C[C@@H](C3(C)C)[C@]2(C)O1 (mixture of isomers) : reported IC50 = < 10 nM

====

Each record here notes measured pIC50.
- TARGET_DESC: 20S Human Erythrocyte Proteasome (HEP) (Homo sapiens, UniProt P20618+P28074)
- Construct: 20S Human Erythrocyte Proteasome (HEP), purchased from Immatics Biotechnologies Inc
- ASSAY: Chymotrypsin-like activity of 20S Human Erythrocyte Proteasome (HEP), IC50 determination
- PROTOCOL_CONDITIONS: assay of Example C, inhibition of HEP
pIC50: −log10 of the molar value.

In the examples that follow, each entry is paired with its recorded pIC50.
{"columns": ["MOLECULE", "EXPERIMENTAL_READOUT", "REPORTED_MEASUREMENT"],
 "data": [
  ["CC(C)C[C@H](NC(=O)[C@@H](NC(=O)c1ccc(-c2cccnc2)cc1)[C@@H](C)O)B(O)O", "pIC50", "> 8.00"],
  ["Cc1ccc(CSCCC(=O)N[C@@H](CCCNC(=N)N[N+](=O)[O-])C(=O)N[C@@H](CC(C)C)B2O[C@@H]3C[C@@H]4C[C@@H](C4(C)C)[C@]3(C)O2)cc1", "pIC50", "> 8.00"],
  ["CCCCc1ccc(C(=O)N[C@@H](CNS(=O)(=O)c2ccc(N3CCOCC3)nc2)C(=O)N[C@@H](CC(C)C)B(O)O)cc1.Cl [E.5.27, hydrochloride]", "pIC50", "> 8.00"],
  ["CC(C)C[C@H](NC(=O)[C@H](CCCNC(=N)N[N+](=O)[O-])NC(=O)CCCCCCCCCCC#N)B(O)O", "pIC50", "> 8.00"],
  ["COc1ccccc1/C=C\\C(=O)N[C@@H](CCCNC(=N)N[N+](=O)[O-])C(=O)N[C@@H](CC(C)C)B1O[C@@H]2C[C@@H]3C[C@@H](C3(C)C)[C@]2(C)O1", "pIC50", "> 7.00"]
]}

Alright, here's another molecule for you.
Record summary for `Cc1ccc(CCCC(=O)N[C@@H](CCCNC(=N)N[N+](=O)[O-])C(=O)N[C@@H](CC(C)C)B(O)O)cc1` : reported pIC50 = > 8.00
